These entries and their values trace back to patent US20240279318A1.

target_desc: T1, AFP158/HLA-A*02:01 complex (human)
T1 construct: biotinylated on the BSP by BirA for ELISA and panning; also called biotinylated AFP158/HLA-A*02:01 complex; Bio-AFP158
assay_details: SPR, crude scFv captured;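 also: Peptide–MHC complex flowed at several concentrations over sensorchip-captured scFv, Kd derived from on- and off-rates obtained from the association and dissociation curves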
pKd: −log10 of the molar value.
measured_endpoint: pKd

binder="AS170036 VL1VH1 HG108V (scFv) scFv: QSALTQPRSVSGSPGQSVTISCAGTSSDVGSENYVSWYQQHPGKAPKLMIYQVNKRASGVPDRFSGSKSGNTASLTISGLQAEDEADYYCASYRSSDHNIVFGGGTKLTVLGGGGSGGGGSGGGGSEVQLVESGGGLVQPGGSLRLSCAASGFTFSSYAMSWVRQAPGKGLEWVSTINSGTGSPYYADSVKGRFTISRDNSKNTLYLQMNSLRAEDTAVYYCAKNFFDGSWFLVPPAMDYWGQGTLVTVSSHHHHHH" measured_endpoint=pKd reported_measurement=6.43
binder="AS170036 VL1VH1 HL107M (scFv) scFv: QSALTQPRSVSGSPGQSVTISCAGTSSDVGSENYVSWYQQHPGKAPKLMIYQVNKRASGVPDRFSGSKSGNTASLTISGLQAEDEADYYCASYRSSDHNIVFGGGTKLTVLGGGGSGGGGSGGGGSEVQLVESGGGLVQPGGSLRLSCAASGFTFSSYAMSWVRQAPGKGLEWVSTINSGTGSPYYADSVKGRFTISRDNSKNTLYLQMNSLRAEDTAVYYCAKNFFDGSWFMGPPAMDYWGQGTLVTVSSHHHHHH" measured_endpoint=pKd reported_measurement=6.43
binder="AS170036 VL1VH1 HP58H (scFv) scFv: QSALTQPRSVSGSPGQSVTISCAGTSSDVGSENYVSWYQQHPGKAPKLMIYQVNKRASGVPDRFSGSKSGNTASLTISGLQAEDEADYYCASYRSSDHNIVFGGGTKLTVLGGGGSGGGGSGGGGSEVQLVESGGGLVQPGGSLRLSCAASGFTFSSYAMSWVRQAPGKGLEWVSTINSGTGSHYYADSVKGRFTISRDNSKNTLYLQMNSLRAEDTAVYYCAKNFFDGSWFLGPPAMDYWGQGTLVTVSSHHHHHH" measured_endpoint=pKd reported_measurement=6.00
binder="AS170036 VL1VH1 HG56M (scFv) scFv: QSALTQPRSVSGSPGQSVTISCAGTSSDVGSENYVSWYQQHPGKAPKLMIYQVNKRASGVPDRFSGSKSGNTASLTISGLQAEDEADYYCASYRSSDHNIVFGGGTKLTVLGGGGSGGGGSGGGGSEVQLVESGGGLVQPGGSLRLSCAASGFTFSSYAMSWVRQAPGKGLEWVSTINSGTMSPYYADSVKGRFTISRDNSKNTLYLQMNSLRAEDTAVYYCAKNFFDGSWFLGPPAMDYWGQGTLVTVSSHHHHHH" measured_endpoint=pKd reported_measurement=6.89
binder="AS170036 VL1VH1 HG56R (scFv) scFv: QSALTQPRSVSGSPGQSVTISCAGTSSDVGSENYVSWYQQHPGKAPKLMIYQVNKRASGVPDRFSGSKSGNTASLTISGLQAEDEADYYCASYRSSDHNIVFGGGTKLTVLGGGGSGGGGSGGGGSEVQLVESGGGLVQPGGSLRLSCAASGFTFSSYAMSWVRQAPGKGLEWVSTINSGTRSPYYADSVKGRFTISRDNSKNTLYLQMNSLRAEDTAVYYCAKNFFDGSWFLGPPAMDYWGQGTLVTVSSHHHHHH" measured_endpoint=pKd reported_measurement=6.52
binder="AS170036 VL1VH1 HS57T (scFv) scFv: QSALTQPRSVSGSPGQSVTISCAGTSSDVGSENYVSWYQQHPGKAPKLMIYQVNKRASGVPDRFSGSKSGNTASLTISGLQAEDEADYYCASYRSSDHNIVFGGGTKLTVLGGGGSGGGGSGGGGSEVQLVESGGGLVQPGGSLRLSCAASGFTFSSYAMSWVRQAPGKGLEWVSTINSGTGTPYYADSVKGRFTISRDNSKNTLYLQMNSLRAEDTAVYYCAKNFFDGSWFLGPPAMDYWGQGTLVTVSSHHHHHH" measured_endpoint=pKd reported_measurement=6.66
binder="AS170036 VL1VH1 HG108W (scFv) scFv: QSALTQPRSVSGSPGQSVTISCAGTSSDVGSENYVSWYQQHPGKAPKLMIYQVNKRASGVPDRFSGSKSGNTASLTISGLQAEDEADYYCASYRSSDHNIVFGGGTKLTVLGGGGSGGGGSGGGGSEVQLVESGGGLVQPGGSLRLSCAASGFTFSSYAMSWVRQAPGKGLEWVSTINSGTGSPYYADSVKGRFTISRDNSKNTLYLQMNSLRAEDTAVYYCAKNFFDGSWFLWPPAMDYWGQGTLVTVSSHHHHHH" measured_endpoint=pKd reported_measurement=5.64
binder="AS170036 VL1VH1 HF101W (scFv) scFv: QSALTQPRSVSGSPGQSVTISCAGTSSDVGSENYVSWYQQHPGKAPKLMIYQVNKRASGVPDRFSGSKSGNTASLTISGLQAEDEADYYCASYRSSDHNIVFGGGTKLTVLGGGGSGGGGSGGGGSEVQLVESGGGLVQPGGSLRLSCAASGFTFSSYAMSWVRQAPGKGLEWVSTINSGTGSPYYADSVKGRFTISRDNSKNTLYLQMNSLRAEDTAVYYCAKNFWDGSWFLGPPAMDYWGQGTLVTVSSHHHHHH" measured_endpoint=pKd reported_measurement=6.52
binder="AS170036 VL1VH1-VHS57M (scFv) scFv: QSALTQPRSVSGSPGQSVTISCAGTSSDVGSENYVSWYQQHPGKAPKLMIYQVNKRASGVPDRFSGSKSGNTASLTISGLQAEDEADYYCASYRSSDHNIVFGGGTKLTVLGGGGSGGGGSGGGGSEVQLVESGGGLVQPGGSLRLSCAASGFTFSSYAMSWVRQAPGKGLEWVSTINSGTGMPYYADSVKGRFTISRDNSKNTLYLQMNSLRAEDTAVYYCAKNFFDGSWFLGPPAMDYWGQGTLVTVSSHHHHHH" measured_endpoint=pKd reported_measurement=7.05
